tested.on: Receptor tyrosine-protein kinase erbB-2 (Homo sapiens) (UniProt P04626)
Sequence (P04626 whole entry, looked up): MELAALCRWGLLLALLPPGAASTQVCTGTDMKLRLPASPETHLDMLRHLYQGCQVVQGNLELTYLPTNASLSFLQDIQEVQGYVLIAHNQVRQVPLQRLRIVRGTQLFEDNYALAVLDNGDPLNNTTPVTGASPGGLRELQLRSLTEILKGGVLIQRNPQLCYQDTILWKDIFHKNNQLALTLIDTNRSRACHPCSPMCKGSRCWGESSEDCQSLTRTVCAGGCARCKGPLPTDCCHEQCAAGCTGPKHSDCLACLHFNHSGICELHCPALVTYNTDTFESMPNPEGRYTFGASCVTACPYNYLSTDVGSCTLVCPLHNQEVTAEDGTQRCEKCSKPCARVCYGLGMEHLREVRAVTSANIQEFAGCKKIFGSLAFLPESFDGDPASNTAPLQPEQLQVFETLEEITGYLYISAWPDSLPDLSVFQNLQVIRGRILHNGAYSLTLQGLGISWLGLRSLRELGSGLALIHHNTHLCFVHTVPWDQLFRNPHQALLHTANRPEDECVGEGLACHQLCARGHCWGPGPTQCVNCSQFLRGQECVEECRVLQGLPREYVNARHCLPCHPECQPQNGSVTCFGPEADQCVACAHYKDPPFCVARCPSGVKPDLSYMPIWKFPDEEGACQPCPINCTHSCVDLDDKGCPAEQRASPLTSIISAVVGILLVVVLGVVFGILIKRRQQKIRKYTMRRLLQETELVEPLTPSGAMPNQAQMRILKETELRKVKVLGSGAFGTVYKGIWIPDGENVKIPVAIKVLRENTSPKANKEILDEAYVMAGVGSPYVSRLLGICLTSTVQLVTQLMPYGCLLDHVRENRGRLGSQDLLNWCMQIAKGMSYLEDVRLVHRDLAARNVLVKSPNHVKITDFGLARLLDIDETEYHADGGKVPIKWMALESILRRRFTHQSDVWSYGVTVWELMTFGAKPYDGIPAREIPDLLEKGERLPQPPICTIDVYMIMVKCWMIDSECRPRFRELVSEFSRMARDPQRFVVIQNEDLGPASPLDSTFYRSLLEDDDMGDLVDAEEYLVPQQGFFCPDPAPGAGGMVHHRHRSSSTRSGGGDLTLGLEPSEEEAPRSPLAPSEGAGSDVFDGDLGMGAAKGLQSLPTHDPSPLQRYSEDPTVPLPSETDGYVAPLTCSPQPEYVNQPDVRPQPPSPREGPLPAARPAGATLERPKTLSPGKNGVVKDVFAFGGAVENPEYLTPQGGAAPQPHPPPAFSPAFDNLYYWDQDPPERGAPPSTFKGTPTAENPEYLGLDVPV
procedure.summary: reducers of endogenous Her2 protein level, primary screen, SKBR3 breast tumor cells, AlphaScreen, ATP viability (AID 461);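 also: lower value means less Her2 protein in the cells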
settings: 18-24 h, at 10 µM, hits give low values
Calls of active or inactive are those of the source.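 The calls were made as follows: active = Her2 level under about 52% in both replicate screens, with viability over 70% of control (limit read from the data); inconclusive = Her2 under the limit in one screen only, or viability under 70%; inactive = Her2 level above the set limit.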
measurement.name: Her2 level

Example cases with answers are listed next.
* CCOCCCNC(=O)c1cc2sc(Cl)cc2n1CC | 88% (inactive)
* CCn1c(SCC(=O)Nc2cc(C)on2)nc2sc3c(c2c1=O)CCCC3 | 76.5% (inactive)
* COc1ccc(OC)c(NC(=O)CCNS(=O)(=O)c2cccs2)c1 | 103% (inactive)
* Nn1cc(-c2ccccc2)nc1SCC(=O)N1CCN(S(=O)(=O)c2ccccc2)CC1 | 96% (inactive)

Query block: Please look up its Her2 level: `Cc1nc(NC2=NCN(CCN3CCOCC3)CN2)nc2c(C)cccc12`
Result block: 91.5% (inactive)

---

tested.on: Receptor tyrosine-protein kinase erbB-2 (Homo sapiens)
procedure.summary: reducers of endogenous Her2 protein level, primary screen, SKBR3 breast tumor cells, AlphaScreen, ATP viability (AID 461);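 also: lower value means less Her2 protein in the cells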
settings: 18-24 h, at 10 µM, hits give low values
Active and inactive are the calls of the source.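 How the source made its calls: active means Her2 level under about 52% in both replicate screens, with viability over 70% of control (limit read from the data); inconclusive means Her2 under the limit in one screen only, or viability under 70%; inactive means Her2 level above the set limit.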
measurement.name: Her2 level

Field: example entries. Status: answers known.
* Cc1nc2oc3c(NCc4ccccn4)ncnc3c2c2c1COC(C)(C)C2 | 89% (inactive)
* CCCCOc1ccc(-c2ncc(C(=O)OCC)c(N)n2)cc1 | 88% (inactive)
* CCCCN(CCCNC(=O)C1CCN(S(=O)(=O)CC)CC1)c1ccccc1 | 89.5% (inactive)

The record that follows has no Her2 level shown yet.
Query block: I'd like to know its Her2 level. The molecule in question is `CCOC(=O)c1sc(NC(=O)c2c(C)nn(Cc3ccccc3)c2C)cc1C`
Result block: 90.5% (inactive)

---

procedure.summary: growth inhibitors of H69AR lung tumor, primary screen, human, duplicate replicates (AID 580);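 also: 100% = mean luminescence of untreated wells and 0% = no signal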
settings: H69AR lung tumor cells viability, ATP luminescence, 72 h; at 10 µM; hits give low values
Rule: viability below 90% gives satisfied. Equal to or above 90% gives not satisfied.

Consider the following illustrative entries.
• O=C(O)C1CCCCC1C(=O)Nc1ccccn1 (stereo not drawn) = not satisfied
• CCOC(=O)c1[nH]c2cc(OC)c(OC)cc2c1NC(=O)C(C)N1CCN(Cc2ccccc2)CC1 (stereo not drawn) = satisfied
• COc1ccccc1C(=O)N1CCN(CCc2ccccc2)CC1 = not satisfied

Query block: Answer whether the compound `CN1CCc2c(sc3c2c(=O)n(-c2ccccc2)c2nnc(SCc4ccccc4)n32)C1` has viability strictly less than 90%
Result block: not satisfied

Query block: Lab note: viability threshold 90%. Does this compound come in strictly under it? CC(C)CC(OC(=O)c1cccs1)C(=O)NCc1ccco1 (stereo not drawn)
Result block: satisfied

Query block: Quick check: does `O=C(CSc1nnnn1C1CCCC1)NCc1ccc2c(c1)OCO2` have viability under 90%?
Result block: not satisfied

Query block: Please state whether viability is below 90% for CCOc1ccc(C2C(C#N)=C(N)Oc3cc(C)n(Cc4ccco4)c(=O)c32)cc1OC (stereo not drawn)
Result block: satisfied

Query block: Strictly below 90% in viability? CCc1ccc(NC(=O)CS(=O)CC(=O)NCC2OCCc3ccccc32)cc1 (stereo not drawn)
Result block: not satisfied
